The reported numbers originate from PubChem BioAssay (NCATS).

target: Dual specificity protein kinase CLK4 (Homo sapiens) (UniProt Q9HAZ1); experiment: qHTS Assay for Inhibitors of CDC-like Kinase 4 (Kinase-Glo Assay) (AID 1770); conditions: recombinant Clk4, Kinase-Glo ATP depletion luminescence; series mostly up to 66.7 µM; note: nearly all actives have a fitted effect of over 65% in size
Sequence (Q9HAZ1 whole entry, looked up): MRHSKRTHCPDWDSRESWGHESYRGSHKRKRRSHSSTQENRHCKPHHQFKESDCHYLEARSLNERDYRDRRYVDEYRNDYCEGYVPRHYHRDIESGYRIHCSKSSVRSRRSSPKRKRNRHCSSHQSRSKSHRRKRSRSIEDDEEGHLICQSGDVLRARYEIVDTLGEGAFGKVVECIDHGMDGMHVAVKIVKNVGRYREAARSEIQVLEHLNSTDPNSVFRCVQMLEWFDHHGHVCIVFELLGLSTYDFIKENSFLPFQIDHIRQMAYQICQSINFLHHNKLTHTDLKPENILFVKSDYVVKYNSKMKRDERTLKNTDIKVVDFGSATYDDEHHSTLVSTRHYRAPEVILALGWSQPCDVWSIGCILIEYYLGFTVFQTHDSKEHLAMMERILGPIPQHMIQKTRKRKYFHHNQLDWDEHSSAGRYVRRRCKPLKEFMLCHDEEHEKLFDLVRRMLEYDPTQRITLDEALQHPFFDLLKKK
Inconclusive results are not listed. Calls of active or inactive are those of the source. Calls come from the whole dose curve; as a rule, active = well fitted inhibition curve with a large enough effect; inconclusive = small, poorly fitted or top-dose-only effect; inactive = flat fitted curve, though single readings scatter.
Classes used: yes (1) for active, no (0) for inactive

# ITEM SMILES, CLASS NAME
data = [
    ("COc1cccc(Nc2ncc3ncc(=O)n(CCC#N)c3n2)c1", "yes (1)"),
    ("COc1ccc(CNc2ncncc2-c2ccccc2OC)c(OC)c1", "no (0)"),
    ("COCCn1c(=O)c(CCc2ccccc2)nc2cnc(N(C)C)nc21", "no (0)"),
    ("c1ccc(Nc2nc(-c3cccnc3)nc3ccccc23)cc1", "yes (1)"),
    ("c1cncc(CNc2nc(-c3cccnc3)nc3ccccc23)c1", "yes (1)"),
    ("COc1ccc2[nH]cc(CCNc3ncnc4ccc(-c5cccc(C#N)c5)cc34)c2c1", "yes (1)"),
]
